Recorded Percent Viability @ 1 μM (TZM-bl cells) values for a group of molecules are listed next.
# Test system: TZM-bl cell line
# Type: cell-based
# ASSAY_CONTEXT: human, 1 μM
Express it in %; write the number only.

Solved entries (count: 3):
>  <MOLECULE>
Oc1c(CCc2ccc(F)cc2)c(C2CCN(Cc3cccnc3)CC2)nn1-c1nc2ccccc2[nH]1 [Compound I-803]

>  <Percent Viability @ 1 μM (TZM-bl cells) / %>
100.4

$$$$
>  <MOLECULE>
CC(C)(C)OC(=O)N1CCC(CCc2c(-c3ccc(C(F)(F)F)cc3)nn(-c3nc4ccccc4[nH]3)c2O)CC1 [Compound I-204]

>  <Percent Viability @ 1 μM (TZM-bl cells) / %>
95.1

$$$$
>  <MOLECULE>
CC(C)COC(=O)N1CCC(c2nn(-c3nc4ccccc4[nH]3)c(O)c2CCc2ccc(F)cc2)CC1 [Compound I-721]

>  <Percent Viability @ 1 μM (TZM-bl cells) / %>
84.3

$$$$

Notebook: pull reported Percent Viability @ 1 μM (TZM-bl cells) for TZM-bl cell line, entry O=S(=O)(c1cccnc1)N1CCC(c2nn(-c3nc4ccccc4[nH]3)c(O)c2CCc2ccc(F)cc2)CC1 [Compound I-742] 77.3

And Oc1c(CCc2ccc(F)cc2)c(-c2ccc(C(F)(F)F)cn2)nn1-c1cc(C(F)(F)F)n[nH]1 [Compound I-602] ? 97.2

And CS(=O)(=O)N1CCC(c2nn(-c3nc4cc(Cl)ccc4[nH]3)c(O)c2CCn2nccn2)CC1 [Compound I-707] ? 109.3

And O=C(c1c(O)cc(O)cc1O)N1CCCC1c1nn(-c2nc3ccccc3[nH]2)c(O)c1CCc1ccc(F)cc1 (centres unmarked) [Compound I-762] ? 98.9

And CC(C)(O)C(=O)N1CCC(CCc2c(-c3cccc(S(C)(=O)=O)c3)nn(-c3nc4ccccc4[nH]3)c2O)CC1 [Compound I-776] ? 97.1

And CC[C@H](O)C(=O)N1CCC(c2nn(-c3nc4ccccc4[nH]3)c(O)c2CCc2ccc(F)cc2)CC1 [Compound I-733] ? 98.8

And Cc1ccn(CCc2c(-c3ccc(C(F)(F)F)cc3)nn(-c3nc4cccnc4[nH]3)c2O)n1 [Compound I-303] ? 98.3

And Oc1c(CCC2CCNCC2)c(-c2ccc(C(F)(F)F)cc2)nn1-c1nc2ccccc2[nH]1 [Compound I-552] ? 91.4

And O=C1CCCN1CCc1c(-c2ccc(C(F)(F)F)cc2)nn(-c2nc3ccccc3[nH]2)c1O [Compound I-132] ? 96.5

And CS(=O)(=O)c1ccc(-c2nn(-c3cc(C(F)(F)F)n[nH]3)c(O)c2CCc2ccc(F)cc2)cc1 [Compound I-603] ? 106.0

And O=C(OCc1ccccc1)N1CCC(c2c(-c3ccc(C(F)(F)F)cc3)nn(-c3nc4ccccc4[nH]3)c2O)CC1 [Compound I-164] ? 93.6

====

# Tested on: TZM-bl cell line
# Type: cell-based
# ASSAY_CONTEXT: human, 1 μM
Recorded Percent Viability @ 1 μM (TZM-bl cells) values for a group of compounds are listed next.
Express it in %; write the number only.

Solved entries (count: 8):
>  <COMPOUND>
Cc1nccn1CCc1c(-c2ccc(C(F)(F)F)cc2)nn(-c2nc3ccccc3[nH]2)c1O

>  <DISPLAY_UNIT>
%

>  <Percent Viability @ 1 μM (TZM-bl cells)>
100.2

$$$$
>  <COMPOUND>
CS(=O)(=O)N1CCC(Cc2c(-c3ccc(C(F)(F)F)cc3)nn(-c3nc4ccccc4[nH]3)c2O)CC1

>  <DISPLAY_UNIT>
%

>  <Percent Viability @ 1 μM (TZM-bl cells)>
89.1

$$$$
>  <COMPOUND>
CS(=O)(=O)N1CCC(c2nn(-c3nc4cc(Cl)ccc4[nH]3)c(O)c2CCC2CCOCC2)CC1

>  <DISPLAY_UNIT>
%

>  <Percent Viability @ 1 μM (TZM-bl cells)>
98.6

$$$$
>  <COMPOUND>
O=C(Cc1ccncc1)N1CCCC1c1nn(-c2nc3ccccc3[nH]2)c(O)c1CCc1ccc(F)cc1 (centres unmarked)

>  <DISPLAY_UNIT>
%

>  <Percent Viability @ 1 μM (TZM-bl cells)>
96.8

$$$$
>  <COMPOUND>
Oc1c(CCc2ccc(F)cc2)c(C2CCCN(CC(F)(F)F)C2)nn1-c1nc2ccccc2[nH]1 (centres unmarked)

>  <DISPLAY_UNIT>
%

>  <Percent Viability @ 1 μM (TZM-bl cells)>
96.4

$$$$
>  <COMPOUND>
O=C(OCc1ccccc1)N1CCC(c2nn(-c3nc4cccnc4[nH]3)c(O)c2CCc2ccc(F)cc2)CC1

>  <DISPLAY_UNIT>
%

>  <Percent Viability @ 1 μM (TZM-bl cells)>
95.7

$$$$
>  <COMPOUND>
O=S(=O)(C1CC1)N1CCC(c2nn(-c3nc4ccccc4[nH]3)c(O)c2CCc2ccc(F)cc2)CC1

>  <DISPLAY_UNIT>
%

>  <Percent Viability @ 1 μM (TZM-bl cells)>
94.8

$$$$
>  <COMPOUND>
Cn1cccc(CCc2c(-c3ccc(C(F)(F)F)cc3)nn(-c3nc4ccccc4[nH]3)c2O)c1=O

>  <DISPLAY_UNIT>
%

>  <Percent Viability @ 1 μM (TZM-bl cells)>
99.4

$$$$

Quick one: Percent Viability @ 1 μM (TZM-bl cells) of CC(=O)N1CCC(c2nn(-c3nc4ccc(Cl)cc4[nH]3)c(O)c2CCc2ccc(F)cc2)CC1 ? 96.4

And CC(C)(C)OC(=O)N1CCC[C@H]1c1nn(-c2nc3ccccc3[nH]2)c(O)c1CCc1ccc(F)cc1 (stereo in doubt) ? 95.6

Data origin, for the record: patent US20220380341A1
